System tested: T1, HD-PTP_(Bro1-CC) (residues 1-714), His6-tagged (UniProt Q9H3S7 1-714)
T1 construct: HD-PTP (PTPN23), Bro1 and coiled-coil domains, residues 1-714; Precipitated by an anti-His antibody in the co-immunoprecipitation; immobilised on an HTE chip in SPR; also called His6-HD-PTP_(Bro1-CC); source: E. coli BL21(DE3), purified (nickel beads, Mono Q anion exchange, Superdex200)
T1 sequence (looked up): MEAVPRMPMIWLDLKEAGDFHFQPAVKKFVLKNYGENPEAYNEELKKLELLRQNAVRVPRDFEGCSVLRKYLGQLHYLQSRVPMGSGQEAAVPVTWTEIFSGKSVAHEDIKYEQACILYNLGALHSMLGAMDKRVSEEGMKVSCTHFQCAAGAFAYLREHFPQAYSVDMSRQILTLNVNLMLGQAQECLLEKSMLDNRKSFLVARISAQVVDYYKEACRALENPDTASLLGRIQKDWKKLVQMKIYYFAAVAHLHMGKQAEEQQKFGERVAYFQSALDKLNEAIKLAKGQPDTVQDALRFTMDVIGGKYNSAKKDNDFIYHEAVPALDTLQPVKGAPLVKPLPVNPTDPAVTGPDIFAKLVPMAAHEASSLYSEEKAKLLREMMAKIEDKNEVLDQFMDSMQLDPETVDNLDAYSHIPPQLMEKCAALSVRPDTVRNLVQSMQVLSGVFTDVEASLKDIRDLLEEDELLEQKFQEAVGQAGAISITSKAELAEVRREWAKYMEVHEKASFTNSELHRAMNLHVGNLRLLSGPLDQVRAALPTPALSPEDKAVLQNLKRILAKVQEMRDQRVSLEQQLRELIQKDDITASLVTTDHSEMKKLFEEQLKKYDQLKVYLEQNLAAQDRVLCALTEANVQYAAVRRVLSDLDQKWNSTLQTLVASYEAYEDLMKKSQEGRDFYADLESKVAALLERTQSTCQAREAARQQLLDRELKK
Method summary: SPR; ProteOn XPR36; HD-PTP constructs (50-100 ug/mL) immobilised on an HTE chip, peptides injected (50 uL at 100 uL/min); 25 C; 10 mM HEPES pH 7.4, 150 mM NaCl, 0.05% Tween 20; equilibrium binding model
Test settings: both partners purified
Quantity: pKd
Answer as the number alone; pKd is minus log10 of concentration in mol/L.

Endpoint output: pKd of SNIKSLSFPKLDSDDSNQKT (peptide, UniProt Q9NZ09 261-280, looked up, also called UBAP1C peptide) [UBAP1C (UBAP1 peptide containing residues 261-280)] . Value?
4.50
